- Test system: MS2 coat protein
- experiment-description: apparent KD of MS2 coat protein; designed switch direction (-1 OFF switch, 1 ON switch): -1; higher = weaker reporter binding
- test-settings: input ligand: none
Listed next: entries and their corresponding apparent KD of MS2 coat protein.
The reply should contain only the number, in nM.

UUGUUAUAUGAAGGAUAUACUUAACAUGAGGAUCACCCAUGUGGUGUUGUGAGUGAGUGAGUUUAGUAGAAGGUCAAUUCUUUU [JMF's solution 94] (Eterna round: R96, puzzle: Exclusion NG 2) | 421
GUCAGCUCGUCAGGAUAUGAACAUGAGGAUCACCCAUGUAAGAUCAAGCUGCUUCGGCAGCAAGUUCAGAAGGGACGAGCUGAU [ENG2/10-B2] (Eterna round: R96, puzzle: Exclusion NG 2) | 104
AAGAAACAGCUAGGAUAUCAGACCAACAUGAGGAUCACCCAUGUCAAGGUCUUUCUUAGUAGGUUUGAGAAGGAGCCAUAAAUA [Xelequriqu] (Eterna round: R96, puzzle: Exclusion NG 2) | 11.2

Can you share its apparent KD of MS2 coat protein? I mean this sequence: AACCGUGCGGAGGAUAUUGAUAUCCCAGUCUAUCAAGAAGGCUGCACAUGAGGAUCACCCAUGUGAUCCGUGCU [Riri] (Eterna round: R96, puzzle: Exclusion 6)
25.1

Can you share its apparent KD of MS2 coat protein? I mean this sequence: CGGGUUCGUGUUAGGAUAUGCACGCACCCGUUGCGGCAGAAGGAACAUGAGGAUCACCCAUGUGAAUAAGAAAG [BmEX4 A.21] (Eterna round: R97, puzzle: Brourd's mod of Exclusion 4)
15.5

====

- Test system: MS2 coat protein
- experiment-description: apparent KD of MS2 coat protein; designed switch direction (-1 OFF switch, 1 ON switch): 1; higher = weaker reporter binding
- test-settings: Eterna round: R95; input ligand: microRNA oligo, concentration not stated
test-readout: apparent KD of MS2 coat protein (µM)
The reply should contain only the number, in µM.

Solved entries:
AGUCCAGCCAGAGCUGGACAAAAGCAUGUACAUGAGGAUCACCCAUGUUCAUGUACAAGCUUUUUGCAAGUCAAAAG [Mat - hsa-mir-208a - Mod of JL - 74] (puzzle: Sensor for hsa-mir-208a) | 0.0259
GUGCGGCUGCCACAGGAUAUACGUGGAUCGACAUGAGGAUCACCCAUGUAUAUCCUAAUAAUUGCGUAGAAGGGUGGUCAGCCGG [Anzaenenes] (puzzle: Same State 2) | 0.608
UUUAGUUGCGGGCAGGAUAUGUAUUAAAAUACAUGAGGAUCACCCAUGUGAGGUCAUAAAGACCUGCAGAAGGGCCAAUCGCGAC [Laonerce - 17] (puzzle: Same State 2) | 0.0868
CAGCGCUGUCGAGAGGAUAUGCGGUGAUGGACAUGAGGAUCACCCAUGUUAGCGAUAGCAUUACGGUAGAAGGCUCUACAGCUGC [Soteed no mod] (puzzle: Same State 2) | 0.0255

// next entry
Can you share its apparent KD of MS2 coat protein? I mean this sequence: UAAACUUCUUUUAGUGUAAUGCAAGUGAUACAUGAGGAUCACCCAUGUUUUGGAUCGUGUUAUUUUGUUCGUCUUAA [JR_SHM208A_Sub077] (puzzle: Sensor for hsa-mir-208a)
0.0303
